- STUDY_SYSTEM: human FAP (Homo sapiens, UniProt Q12884)
- Sequence (Q12884 26-760): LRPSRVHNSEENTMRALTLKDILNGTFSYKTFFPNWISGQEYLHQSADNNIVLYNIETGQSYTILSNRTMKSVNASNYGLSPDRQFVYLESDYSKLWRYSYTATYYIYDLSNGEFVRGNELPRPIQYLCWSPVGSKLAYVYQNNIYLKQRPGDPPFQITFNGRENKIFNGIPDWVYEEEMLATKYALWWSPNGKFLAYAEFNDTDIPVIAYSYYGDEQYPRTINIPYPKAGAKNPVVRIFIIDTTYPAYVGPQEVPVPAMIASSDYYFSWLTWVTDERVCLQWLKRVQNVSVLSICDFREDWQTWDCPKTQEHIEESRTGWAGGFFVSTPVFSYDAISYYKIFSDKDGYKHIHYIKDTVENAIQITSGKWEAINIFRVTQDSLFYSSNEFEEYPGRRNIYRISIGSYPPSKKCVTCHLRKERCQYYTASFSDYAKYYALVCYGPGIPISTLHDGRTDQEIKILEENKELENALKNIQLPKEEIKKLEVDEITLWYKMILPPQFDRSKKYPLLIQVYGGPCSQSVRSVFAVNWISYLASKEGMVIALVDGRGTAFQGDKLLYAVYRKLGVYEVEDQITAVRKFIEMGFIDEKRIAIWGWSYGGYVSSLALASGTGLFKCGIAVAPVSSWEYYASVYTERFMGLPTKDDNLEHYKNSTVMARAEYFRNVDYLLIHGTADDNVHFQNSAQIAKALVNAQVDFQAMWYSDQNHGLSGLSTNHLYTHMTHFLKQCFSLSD
Where a name gives a salt, the structure may show the parent alone. Starred links: 1 amine or outer side, 2 acyl side, 3 side chain; linkers in the order of their positions; H or OH if unused. Non-standard residues stand in square brackets, D forms with d. Residues, ends and D or L forms follow the SMILES beside them. Groups on a side chain read outwards from the residue. *: point of attachment. X9 = O=C(O)CN1CCN(CC(=O)O)CCN([C@H](CCC(=O)*)C(=O)O)CCN(CC(=O)O)CC1; NOTA = O=C(O)CN1CCN(CC(=O)O)CCN(CC(=O)*)CC1; Phe(4-CH2NH2) = NCc1ccc(C[C@H](N)C(=O)O)cc1; Piperazinyl(4-CH2COOH) = O=C(O)CN1CCN(*)CC1; AEF = NCCOc1ccc(C[C@H](N)C(=O)O)cc1; NMeF = CN[C@@H](Cc1ccccc1)C(=O)O; Ahp(2) = CCCCC[C@H](N)C(=O)O; hSer = N[C@@H](CCO)C(=O)O; AEEA = NCCOCCOCC(=O)O; CO = O=C([*:1])[*:2]; Propyl = CCC*
MEASUREMENT_NAME: pIC50
Lab note — pIC50 values are minus log10 of concentrations in M.

For orientation, consider the following solved cases.
COMPOUND	MEASUREMENT_NAME	DATA_VALUE
CCCCC[C@@H]1NC(=O)[C@H](Cc2ccc(OCCNC(=O)CC[C@H](C(=O)O)N3CCN(CC(=O)O)CCN(CC(=O)O)CCN(CC(=O)O)CC3)cc2)NC(=O)[C@H](Cc2ccccc2)N(C)C(=O)CNC(=O)CNC(=O)[C@H]2CCCN2C(=O)[C@H](CC(=O)O)NC(=O)[C@H](Cc2ccc(O)cc2)NC(=O)CNC(=O)[C@H](Cc2c[nH]c3ccccc23)NC1=O [Example B30] (cyclo([AEF](X9)[Ahp(2)]WGYD[dP]GG[NMeF]))	pIC50	10.72
CCCCC[C@@H]1NC(=O)[C@H](Cc2ccc(O)cc2)NC(=O)[C@H](Cc2ccccc2)N(C)C(=O)[C@@H](CO)NC(=O)CNC(=O)[C@H]2CCCN2C(=O)[C@H](CC(=O)O)NC(=O)[C@H](Cc2ccc(O)cc2)NC(=O)CNC(=O)[C@H](Cc2c[nH]c3ccccc23)NC1=O [Example A67] (cyclo([Ahp(2)]WGYD[dP]G[dS][NMeF]Y))	pIC50	7.12
CCCCC[C@@H]1NC(=O)[C@H](Cc2ccc(O)cc2)NC(=O)[C@H](Cc2ccccc2)N(C)C(=O)CNC(=O)[C@@H]2CCCN2C(=O)[C@H]2CCCN2C(=O)[C@H](CC(=O)O)NC(=O)[C@H](Cc2ccc(O)cc2)NC(=O)CNC(=O)[C@H](Cc2c[nH]c3ccccc23)NC1=O [Example A51] (cyclo(G[NMeF]Y[Ahp(2)]WGYD[dP]P))	pIC50	9.93
CCCOCC[C@@H]1NC(=O)[C@H](Cc2ccc(CNC(=O)COCCOCCN)cc2)NC(=O)[C@H](Cc2ccccc2)N(C)C(=O)CNC(=O)CNC(=O)[C@H]2CCCN2C(=O)[C@H](CC(=O)O)NC(=O)[C@H](CCCCNC(=O)N2CCN(CC(=O)O)CC2)NC(=O)CNC(=O)[C@H](Cc2c[nH]c3ccccc23)NC1=O [Example A2, TFA salt] (cyclo(D[dP]GG[NMeF][Phe(4-CH2NH2)](AEEA)[hSer](Propyl)WGK([CO-Piperazinyl(4-CH2COOH)])))	pIC50	10.92

Attention now turns to another entry.
Report measured pIC50; entry is CCCOCC[C@@H]1NC(=O)[C@H](Cc2ccc(CNC(=O)COCCOCCNC(=O)CN3CCN(CC(=O)O)CCN(CC(=O)O)CC3)cc2)NC(=O)[C@H](Cc2ccccc2)N(C)C(=O)CNC(=O)CNC(=O)[C@H]2CCCN2C(=O)[C@H](CC(=O)O)NC(=O)[C@H](CCCCNC(=O)N2CCN(CC(=O)O)CC2)NC(=O)CNC(=O)[C@H](Cc2c[nH]c3ccccc23)NC1=O [Example B34] (cyclo(D[dP]GG[NMeF][Phe(4-CH2NH2)]([AEEA-NOTA])[hSer](Propyl)WGK([CO-Piperazinyl(4-CH2COOH)])))
11.15

====

- STUDY_SYSTEM: mouse FAP (Mus musculus)
- Construct: biotinylated His, Avi tag, mouse FAP (26-761, FAP-M82Q5); His; Avi tag (biotinylated); purchased AcroBiosystems FAP-M82Q5
- Sequence (P97321 26-761): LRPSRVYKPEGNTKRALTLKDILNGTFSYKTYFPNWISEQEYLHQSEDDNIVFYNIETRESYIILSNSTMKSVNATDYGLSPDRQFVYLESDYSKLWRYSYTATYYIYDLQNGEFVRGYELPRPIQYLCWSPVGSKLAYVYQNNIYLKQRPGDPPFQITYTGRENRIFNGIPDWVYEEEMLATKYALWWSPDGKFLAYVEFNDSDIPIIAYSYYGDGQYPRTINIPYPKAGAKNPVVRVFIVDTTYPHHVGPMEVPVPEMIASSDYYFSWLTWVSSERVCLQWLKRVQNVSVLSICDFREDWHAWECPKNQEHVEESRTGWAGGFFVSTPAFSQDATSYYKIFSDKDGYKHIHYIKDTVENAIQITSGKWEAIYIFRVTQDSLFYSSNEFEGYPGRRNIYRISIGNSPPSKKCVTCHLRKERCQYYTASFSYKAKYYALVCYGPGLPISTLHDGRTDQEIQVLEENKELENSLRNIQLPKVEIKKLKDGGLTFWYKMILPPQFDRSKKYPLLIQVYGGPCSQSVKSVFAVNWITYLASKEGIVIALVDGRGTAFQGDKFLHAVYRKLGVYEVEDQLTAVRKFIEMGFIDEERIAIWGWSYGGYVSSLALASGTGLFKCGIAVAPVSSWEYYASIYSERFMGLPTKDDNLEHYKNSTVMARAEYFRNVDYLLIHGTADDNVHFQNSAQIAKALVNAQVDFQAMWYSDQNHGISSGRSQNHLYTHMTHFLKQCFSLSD
- METHOD_NOTES: Surface plasmon resonance (SPR) for peptide affinity, mouse FAP
- Assay type: binding
Counter-ions that a name gives are not always drawn. Starred links: 1 amine or outer side, 2 acyl side, 3 side chain; linkers in the order of their positions; H or OH if unused. Non-standard residues stand in square brackets, D forms with d. Residues, ends and D or L forms follow the SMILES beside them. Groups on a side chain read outwards from the residue. *: point of attachment. DOTA = O=C(O)CN1CCN(CC(=O)O)CCN(CC(=O)*)CCN(CC(=O)O)CC1; Piperazinyl(4-CH2COOH) = O=C(O)CN1CCN(*)CC1; AEF = NCCOc1ccc(C[C@H](N)C(=O)O)cc1; mTyr = N[C@@H](Cc1cccc(O)c1)C(=O)O; NMeF = CN[C@@H](Cc1ccccc1)C(=O)O; Ahp(2) = CCCCC[C@H](N)C(=O)O; hSer = N[C@@H](CCO)C(=O)O; dNMeA = CN[C@H](C)C(=O)O; Dab = NCC[C@H](N)C(=O)O; CO = O=C([*:1])[*:2]
MEASUREMENT_NAME: Kd (pM)
# value in pM; strip the unit string

Below are worked cases with known answers.
COMPOUND	STUDY_SYSTEM	MEASUREMENT_NAME	DATA_VALUE
CCCCC[C@@H]1NC(=O)[C@H](Cc2ccc(O)cc2)NC(=O)[C@H](Cc2ccccc2)N(C)C(=O)CNC(=O)CNC(=O)[C@H]2CCCN2C(=O)[C@H](CC(=O)O)NC(=O)[C@H](Cc2cccc(O)c2)NC(=O)CNC(=O)[C@H](Cc2c[nH]c3ccccc23)NC1=O [Example A14] (cyclo([Ahp(2)]WG[mTyr]D[dP]GG[NMeF]Y))	mouse FAP (Mus musculus)	Kd	239
CCCCC[C@@H]1NC(=O)[C@H](Cc2ccc(O)cc2)NC(=O)[C@H](Cc2ccccc2)N(C)C(=O)CNC(=O)CNC(=O)[C@@H](C)N(C)C(=O)[C@H](CC(=O)O)NC(=O)[C@H](Cc2ccc(O)cc2)NC(=O)CNC(=O)[C@H](Cc2c[nH]c3ccccc23)NC1=O [Example A65] (cyclo([Ahp(2)]WGYD[dNMeA]GG[NMeF]Y))	mouse FAP (Mus musculus)	Kd	1800

Look up and state reported Kd for CCCCC[C@@H]1NC(=O)[C@H](Cc2ccc(OCCNC(=O)CN3CCN(CC(=O)O)CCN(CC(=O)O)CCN(CC(=O)O)CC3)cc2)NC(=O)[C@H](Cc2ccccc2)N(C)C(=O)CNC(=O)[C@H](CCO)NC(=O)[C@H]2CCCN2C(=O)[C@H](CC(=O)O)NC(=O)[C@H](Cc2ccc(O)cc2)NC(=O)CNC(=O)[C@H](Cc2c[nH]c3ccccc23)NC1=O [Example B26, TFA salt] (cyclo([hSer]G[NMeF][AEF](DOTA)[Ahp(2)]WGYD[dP]))
105

Recall and state the measured Kd for CCCCC[C@@H]1NC(=O)[C@H](Cc2ccc(O)cc2)NC(=O)[C@H](Cc2ccccc2)N(C)C(=O)CNC(=O)CNC(=O)[C@H]2CCCN2C(=O)[C@H](CC(=O)O)NC(=O)[C@H](CCNC(=O)N2CCN(CC(=O)O)CC2)NC(=O)CNC(=O)[C@H](Cc2c[nH]c3ccccc23)NC1=O [Example A5] (cyclo([Ahp(2)]WG[Dab]([CO-Piperazinyl(4-CH2COOH)])D[dP]GG[NMeF]Y)) .
620
